# EXPERIMENTAL_SYSTEM: human TLR9 (Homo sapiens, UniProt Q9NR96)
# Sequence (Q9NR96 26-1032): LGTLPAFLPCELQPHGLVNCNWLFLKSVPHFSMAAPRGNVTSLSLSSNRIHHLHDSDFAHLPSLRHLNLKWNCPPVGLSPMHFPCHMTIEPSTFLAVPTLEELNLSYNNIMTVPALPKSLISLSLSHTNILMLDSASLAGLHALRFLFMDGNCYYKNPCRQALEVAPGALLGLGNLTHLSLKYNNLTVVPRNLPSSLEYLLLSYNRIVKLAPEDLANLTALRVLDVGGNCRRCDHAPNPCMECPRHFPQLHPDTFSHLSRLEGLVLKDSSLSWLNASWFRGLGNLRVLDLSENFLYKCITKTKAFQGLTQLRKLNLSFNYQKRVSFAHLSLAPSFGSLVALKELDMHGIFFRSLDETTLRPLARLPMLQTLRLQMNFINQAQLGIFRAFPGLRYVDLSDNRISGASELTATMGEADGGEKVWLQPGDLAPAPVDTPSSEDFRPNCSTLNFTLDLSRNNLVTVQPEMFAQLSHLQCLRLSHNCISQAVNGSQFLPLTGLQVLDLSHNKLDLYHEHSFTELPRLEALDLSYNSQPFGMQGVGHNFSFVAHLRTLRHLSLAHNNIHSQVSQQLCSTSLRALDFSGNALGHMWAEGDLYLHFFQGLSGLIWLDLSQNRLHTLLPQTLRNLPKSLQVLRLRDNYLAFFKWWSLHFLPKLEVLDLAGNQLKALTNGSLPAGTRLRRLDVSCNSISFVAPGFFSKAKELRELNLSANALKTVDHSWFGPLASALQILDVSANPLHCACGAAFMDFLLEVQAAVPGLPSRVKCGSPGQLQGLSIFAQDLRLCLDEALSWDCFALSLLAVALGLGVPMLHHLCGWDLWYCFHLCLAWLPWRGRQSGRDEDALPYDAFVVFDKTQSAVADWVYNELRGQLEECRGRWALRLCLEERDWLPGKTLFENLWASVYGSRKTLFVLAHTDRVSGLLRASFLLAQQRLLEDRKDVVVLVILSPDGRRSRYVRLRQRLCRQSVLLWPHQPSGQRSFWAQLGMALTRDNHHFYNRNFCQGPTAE
# TEST_DESCRIPTION: TLR9 inhibition reporter assay (HEK-Blue SEAP reporter, ODN2006 stimulation)
# CONDITION_SET: HEK-Blue cells overexpressing human TLR9, SEAP reporter, ODN2006 5 nM, 22 hour incubation
REPORTED_PROPERTY: IC50 (µM)

Examples with answers:
[[record]]
compound = "Cc1c(-c2[nH]c3ccc(C4CCN(CC5CCOC5)CC4)cc3c2C(C)C)cn(C)c(=O)c1Cl (stereo not shown) [Example 255]"
experimental_system = "human TLR9 (Homo sapiens, UniProt Q9NR96)"
reported_property = "IC50"
value = 1.82

[[record]]
compound = "Cc1cc(-c2[nH]c3ccc(C4CCN(CC5CC5)CC4)cc3c2C(C)C)cn(C)c1=O"
experimental_system = "human TLR9 (Homo sapiens, UniProt Q9NR96)"
reported_property = "IC50"
value = 5.91

[[record]]
compound = "CC(C)c1c(-c2cn(C)c(=O)n(C)c2=O)[nH]c2ccc(C3CCNCC3)cc12"
experimental_system = "human TLR9 (Homo sapiens, UniProt Q9NR96)"
reported_property = "IC50"
value = 6.54


(A) Cc1c(-c2[nH]c3ccc(C4CCN(CC5CCOCC5)CC4)cc3c2C(C)C)cn(C)c(=O)c1Cl
(B) Cc1cc(-c2[nH]c3ccc(C4CCNCC4)cc3c2C(C)C)cn(CCO)c1=O
(C) Cc1cc(-c2[nH]c3ccc(C4CCN(C5CCC(F)(F)CC5)CC4)cc3c2C(C)C)cn(C)c1=O
(D) COc1cc(-c2[nH]c3ccc(C4CCN(C(=O)CN(C)C)CC4)cc3c2C(C)C)cn(C)c1=O
(E) Cc1cc(-c2[nH]c3ccc(C4CCN(CC(=O)N(C)C)CC4)cc3c2C(C)C)cn(CC(F)(F)F)c1=O
Sort (5 compounds) by IC50: min first. Order the labels as requested and list them.
D, C, B, A, E

(P) COc1cc(-c2[nH]c3ccc(C4CCN(CC(=O)N(C)C)CC4)cc3c2C(C)C)c(C)n(C)c1=O
(Q) COCCN1CCC(c2ccc3[nH]c(-c4cn(C)c(=O)c(Cl)c4C)c(C(C)C)c3c2)CC1
Param metric = IC50; output whichever of P , Q has the minimum value. Selection: enter the item's label.
P

* * *

# EXPERIMENTAL_SYSTEM: human TLR7 (Homo sapiens, UniProt Q9NYK1)
# TEST_DESCRIPTION: TLR7 inhibition reporter assay (HEK-Blue SEAP reporter, gardiquimod stimulation)
# CONDITION_SET: HEK-Blue cells overexpressing human TLR7, SEAP reporter, gardiquimod 7.5 μM, 22 hour incubation
pIC50: −log10 of the molar value.
REPORTED_PROPERTY: pIC50

Examples with answers:
[[record]]
molecule = "COc1cc(-c2[nH]c3ccc(C4CCNCC4)cc3c2C(C)C)c(C)n(C)c1=O"
reported_property = "pIC50"
value = 6.68

[[record]]
molecule = "CCCN1CCC(c2ccc3[nH]c(-c4cc(-c5cnc(C(F)(F)F)nc5)c(=O)n(C)c4)c(C(C)C)c3c2)CC1"
reported_property = "pIC50"
value = 7.54

[[record]]
molecule = "Cc1cc(-c2[nH]c3ccc(C4CCN(CCCC(F)(F)F)CC4)cc3c2C(C)C)cn(CC(C)C)c1=O"
reported_property = "pIC50"
value = 7.25

[[record]]
molecule = "Cc1cc(-c2[nH]c3ccc(C4CCN(CC(C)(C)O)CC4)cc3c2C(C)C)c(C)n(C)c1=O"
reported_property = "pIC50"
value = 7.99


(I) Cc1cc(-c2[nH]c3ccc(C4CCNCC4)cc3c2C(C)C)cn(CCO)c1=O
(II) CCn1cc(-c2[nH]c3ccc(C4CCN(CC(=O)NC)CC4)cc3c2C(C)C)c(C)c(C)c1=O
Param metric = pIC50; output whichever of I , II has the minimum value. Selection: enter the item's label.
II

(A) Cc1nc(-c2[nH]c3ccc(C4CCN(C)CC4)cc3c2C(C)C)cn(C)c1=O
(B) CCn1cc(-c2[nH]c3ccc(C4CCN(CC(=O)N(C)C)CC4)cc3c2C(C)C)c(C)c(C)c1=O
(C) CC(C)c1c(-c2cc(Cl)c(=O)n(C)c2)[nH]c2ccc(C3CCN(C4CCOCC4)CC3)cc12
(D) Cc1c(-c2[nH]c3ccc(C4CCN(C(C)C)CC4)cc3c2C(C)C)cn(C)c(=O)c1-c1cccnc1
Sort (4 molecules) by pIC50: min first. Order the labels as requested and list them.
D, A, B, C

(P) Cc1nc(-c2[nH]c3ccc(C4CCN(C5CCOC5)CC4)cc3c2C(C)C)cn(C)c1=O (stereo not drawn)
(Q) Cc1cc(-c2[nH]c3ccc(C4CCN(C(C)(C)C(N)=O)CC4)cc3c2C(C)C)cn(C)c1=O
Param metric = pIC50; output whichever of P , Q has the minimum value. Selection: enter the item's label.
P
(P: 7.59, Q: 8.92)

* * *

# EXPERIMENTAL_SYSTEM: human TLR7 (Homo sapiens, UniProt Q9NYK1)
# Sequence (Q9NYK1 27-1049): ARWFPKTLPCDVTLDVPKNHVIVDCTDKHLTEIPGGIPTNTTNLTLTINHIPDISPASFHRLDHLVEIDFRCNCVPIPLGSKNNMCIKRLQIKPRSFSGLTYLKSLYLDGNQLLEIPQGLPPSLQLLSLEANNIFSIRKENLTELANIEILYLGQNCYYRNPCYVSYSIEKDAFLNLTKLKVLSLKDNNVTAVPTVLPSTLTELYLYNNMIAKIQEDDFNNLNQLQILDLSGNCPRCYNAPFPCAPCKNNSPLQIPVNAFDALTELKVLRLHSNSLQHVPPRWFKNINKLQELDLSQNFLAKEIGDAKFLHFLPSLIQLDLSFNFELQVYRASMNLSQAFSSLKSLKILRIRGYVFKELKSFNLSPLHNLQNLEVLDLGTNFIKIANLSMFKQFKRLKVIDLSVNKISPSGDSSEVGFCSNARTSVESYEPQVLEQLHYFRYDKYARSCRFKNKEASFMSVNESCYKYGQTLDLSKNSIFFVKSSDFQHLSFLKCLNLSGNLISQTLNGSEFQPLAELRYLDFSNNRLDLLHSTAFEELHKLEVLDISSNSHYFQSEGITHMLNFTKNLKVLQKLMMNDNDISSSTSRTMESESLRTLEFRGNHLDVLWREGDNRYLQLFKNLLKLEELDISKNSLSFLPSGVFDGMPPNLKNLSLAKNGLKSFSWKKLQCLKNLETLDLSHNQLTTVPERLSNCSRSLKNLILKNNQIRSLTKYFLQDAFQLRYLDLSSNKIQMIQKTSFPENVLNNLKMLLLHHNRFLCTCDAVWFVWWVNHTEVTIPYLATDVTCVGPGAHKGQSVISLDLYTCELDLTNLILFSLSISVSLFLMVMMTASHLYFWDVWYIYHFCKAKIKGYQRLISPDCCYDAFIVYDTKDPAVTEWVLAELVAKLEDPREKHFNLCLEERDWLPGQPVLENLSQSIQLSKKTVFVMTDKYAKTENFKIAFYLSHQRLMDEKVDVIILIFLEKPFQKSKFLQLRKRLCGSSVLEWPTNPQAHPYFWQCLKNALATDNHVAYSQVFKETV
# TEST_DESCRIPTION: TLR7 inhibition reporter assay (HEK-Blue SEAP reporter, gardiquimod stimulation)
# CONDITION_SET: HEK-Blue cells overexpressing human TLR7, SEAP reporter, gardiquimod 7.5 μM, 22 hour incubation
REPORTED_PROPERTY: IC50 (nM)

Examples with answers:
[[record]]
compound = "COCc1cc(-c2[nH]c3ccc(C4CCN(CC(C)(C)O)CC4)cc3c2C(C)C)cn(C)c1=O [Example 323]"
experimental_system = "human TLR7 (Homo sapiens, UniProt Q9NYK1)"
display_unit = "nM"
value = 18.4

[[record]]
compound = "Cc1c(-c2[nH]c3ccc(C4CCN(C5CCOCC5)CC4)cc3c2C(C)C)cn(C)c(=O)c1C#N [Example 222]"
experimental_system = "human TLR7 (Homo sapiens, UniProt Q9NYK1)"
display_unit = "nM"
value = 15.6


(a) Cc1c(-c2[nH]c3ccc(C4CCN(C(CCO)CCO)CC4)cc3c2C(C)C)cn(C)c(=O)c1Cl [Example 243]
(b) CC(C)c1c(-c2ccc(=O)n(C)c2)[nH]c2ccc(C3CCN(CC(=O)N(C)C)CC3)cc12 [Example 114]
Lab notebook, comparison: a versus b , higher IC50 goes to which? Selection: enter the item's label.
b

* * *

# EXPERIMENTAL_SYSTEM: human TLR8 (Homo sapiens)
# Sequence (Q9NR97 27-1041): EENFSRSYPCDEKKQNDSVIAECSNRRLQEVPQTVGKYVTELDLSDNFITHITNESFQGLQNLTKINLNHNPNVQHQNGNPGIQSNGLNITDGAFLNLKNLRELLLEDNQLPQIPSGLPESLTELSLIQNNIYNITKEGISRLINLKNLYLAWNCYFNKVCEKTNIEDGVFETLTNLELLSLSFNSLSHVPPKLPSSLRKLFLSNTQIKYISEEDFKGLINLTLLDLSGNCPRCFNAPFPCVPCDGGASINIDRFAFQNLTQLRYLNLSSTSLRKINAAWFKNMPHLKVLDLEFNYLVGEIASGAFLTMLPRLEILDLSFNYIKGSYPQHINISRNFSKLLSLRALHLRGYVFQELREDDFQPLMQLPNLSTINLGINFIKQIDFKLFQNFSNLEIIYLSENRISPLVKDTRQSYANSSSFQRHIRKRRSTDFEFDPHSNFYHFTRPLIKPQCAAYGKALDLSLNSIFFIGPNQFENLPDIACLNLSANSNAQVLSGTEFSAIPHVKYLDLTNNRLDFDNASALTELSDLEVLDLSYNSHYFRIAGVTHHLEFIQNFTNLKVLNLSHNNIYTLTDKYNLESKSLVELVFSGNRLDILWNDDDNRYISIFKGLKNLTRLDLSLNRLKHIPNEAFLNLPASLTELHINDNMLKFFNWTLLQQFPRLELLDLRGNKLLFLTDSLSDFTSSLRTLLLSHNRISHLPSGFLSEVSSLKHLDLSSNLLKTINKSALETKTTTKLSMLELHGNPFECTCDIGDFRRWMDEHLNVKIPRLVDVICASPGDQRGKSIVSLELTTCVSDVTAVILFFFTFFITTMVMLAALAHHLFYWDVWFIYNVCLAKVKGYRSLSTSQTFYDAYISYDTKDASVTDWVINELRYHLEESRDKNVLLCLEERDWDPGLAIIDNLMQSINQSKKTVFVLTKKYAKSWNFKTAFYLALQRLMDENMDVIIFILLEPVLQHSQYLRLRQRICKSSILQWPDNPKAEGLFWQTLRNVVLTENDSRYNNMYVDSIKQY
# TEST_DESCRIPTION: TLR8 inhibition reporter assay (HEK-Blue SEAP reporter, R848 stimulation)
# CONDITION_SET: HEK-Blue cells overexpressing human TLR8, SEAP reporter, R848 15.9 μM, 22 hour incubation
# From the text: TLR7/8/9 Inhibition Reporter Assays HEK-Blue™-cells (Invivogen) overexpressing human TLR7, TLR8 or TLR9 receptors were used for screening inhibitors of these receptors using an inducible SEAP (secreted embryonic alkaline phosphatase) reporter gene under the control of the IFN-β minimal promoter fused to five NF-κB and AP-1-binding sites. […]
pIC50: −log10 of the molar value.
REPORTED_PROPERTY: pIC50

[[record]]
compound = "Cc1cc(=O)n(C)cc1-c1[nH]c2ccc(C3CCNCC3)cc2c1C(C)C"
reported_property = "pIC50"
value = 7.36

[[record]]
compound = "COc1c(C)c(-c2[nH]c3ccc(C4CCN(CC(C)(C)O)CC4)cc3c2C(C)C)cn(C)c1=O"
reported_property = "pIC50"
value = 8.14

[[record]]
compound = "Cc1cc(-c2[nH]c3ccc(C4CCN(C5CCCOC5)CC4)cc3c2C(C)C)nn(C)c1=O (centres unmarked)"
reported_property = "pIC50"
value = 7.95


(A) Cc1c(-c2[nH]c3ccc(C4CCN(C(=O)CN(C)C)CC4)cc3c2C(C)C)cn(C)c(=O)c1C
(B) CCCN1CCC(c2ccc3[nH]c(-c4cc(-c5cccnc5)c(=O)n(C)c4)c(C(C)C)c3c2)CC1
(C) CC(C)c1c(-c2cc(/C=C/C3CC3)c(=O)n(C)c2)[nH]c2ccc(C3CCNCC3)cc12
(D) Cc1cc(-c2[nH]c3ccc(C4CCN(C5COC5)CC4)cc3c2C(C)C)nn(C)c1=O
(E) CCCN1CCC(c2ccc3[nH]c(-c4cc(N5CCCCC5)c(=O)n(C)c4)c(C(C)C)c3c2)CC1
# desc sort on pIC50 across 5 compounds Order the labels as requested and list them.
B, A, D, C, E
(B: 8.70, A: 8.05, D: 7.60, C: 6.85, E: 6.01)
